Values from patent US20090318509A1

# Test system: UniProtKB P14174
# Protocol text: MIF dopachrome tautomerase activity inhibition
# Type: biochemical
# Parameters: 1 μL of MIF solution (800-900 ng/mL)
# Test parameters: Table 2, additional MIF inhibitors; read-out: IC50 MIF inhibitory activity in vitro
Assay metric: IC50 (nM)
Kindly answer with a numeric value in nM, unit omitted.

(Q) Query (compound): CC(C)(C)OC(=O)NOC(=O)C1CCCC1 [BKII-93] ; field requested: IC50
(A) 700

(Q) Query (compound): CC(C)(C)OC(=O)NOC(=O)C1CC1 [BKII-91] ; field requested: IC50
(A) 1900

(Q) Query (compound): CC(C)(C)OC(=O)NOC(=O)c1ccc(I)cc1 [BKIII-9Y] ; field requested: IC50
(A) 1700

(Q) Query (compound): CC(C)(C)OC(=O)NOC(=O)C1CCCCC1 [BKII-85] ; field requested: IC50
(A) 19500

(Q) Query (compound): CC(C)(C)OC(=O)NOC(=O)c1ccc(C(F)(F)F)cc1 [BKIII-9W] ; field requested: IC50
(A) 69000

(Q) Query (compound): CC(C)(C)OC(=O)NOC(=O)c1ccc(Cl)cc1 [BKIII-8Y] ; field requested: IC50
(A) 870

(Q) Query (compound): CC(C)(C)OC(=O)NOC(=O)c1ccc(Br)cc1 [BKIII-11Y] ; field requested: IC50
(A) 1300

(Q) Query (compound): CC(C)(C)OC(=O)NOC(=O)c1ccc(F)cc1 [BKIII-8W] ; field requested: IC50
(A) 270

(Q) Query (compound): CC(C)(C)OC(=O)NOC(=O)c1ccc(OC(=O)c2ccc(O)cc2)cc1 [BKIII-6Y] ; field requested: IC50
(A) 50000

(Q) Query (compound): COc1ccc(C(=O)ONC(=O)OC(C)(C)C)cc1 [BKII-99] ; field requested: IC50
(A) 1200

(Q) Query (compound): CC(C)(C)OC(=O)NOC(=O)C1CCC1 [BKII-92] ; field requested: IC50
(A) 370

###

# Test system: MIF (Homo sapiens, UniProt P14174)
# Sequence (P14174 2-115 limits assumed): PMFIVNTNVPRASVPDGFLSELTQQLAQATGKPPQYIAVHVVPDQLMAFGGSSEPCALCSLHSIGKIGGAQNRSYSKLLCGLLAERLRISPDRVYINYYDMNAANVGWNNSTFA
# Protocol text: MIF dopachrome tautomerase activity inhibition
# Format: biochemical
# Parameters: 1 μL of MIF solution (800-900 ng/mL)
# Test parameters: Table 2, additional MIF inhibitors; read-out: IC50 MIF inhibitory activity in vitro
Assay metric: IC50 (µM)
Kindly answer with a numeric value in µM, unit omitted.

(Q) Query (compound): CC(C)(C)OC(=O)NNC(=O)C1CCCCC1 ; field requested: IC50
(A) 60

(Q) Query (compound): CC(C)(C)OC(=O)NOC(=O)c1ccccc1 ; field requested: IC50
(A) 0.23

(Q) Query (compound): CC(C)(C)OC(=O)NOC(=O)c1c(F)c(F)c(F)c(F)c1F ; field requested: IC50
(A) 118

###

# Test system: MIF (Homo sapiens, UniProt P14174)
# Protocol text: MIF dopachrome tautomerase activity inhibition
# Type: biochemical
# Set-up: 1 μL of MIF solution (800-900 ng/mL)
# Test parameters: Table 1, left column pair; read-out: IC50 inhibition of MIF tautomerase activity
Give IC50 for every item shown.
Kindly answer with a numeric value in µM, unit omitted.

(Q) Return IC50 measured with MIF (Homo sapiens, UniProt P14174) given this molecule: O=C(O/N=C/c1ccc(O)cc1)C1CCC1
(A) 12

(Q) Return IC50 measured with MIF (Homo sapiens, UniProt P14174) given this molecule: O=C(O/N=C/c1ccc(O)cc1)C1CCCC1
(A) 4.8
